Assay read-out Kd; system under study: translation elongation factor G (EF-G) (Bacillus anthracis, UniProt Q81VT3).
Sequence (Q81VT3 whole entry, looked up): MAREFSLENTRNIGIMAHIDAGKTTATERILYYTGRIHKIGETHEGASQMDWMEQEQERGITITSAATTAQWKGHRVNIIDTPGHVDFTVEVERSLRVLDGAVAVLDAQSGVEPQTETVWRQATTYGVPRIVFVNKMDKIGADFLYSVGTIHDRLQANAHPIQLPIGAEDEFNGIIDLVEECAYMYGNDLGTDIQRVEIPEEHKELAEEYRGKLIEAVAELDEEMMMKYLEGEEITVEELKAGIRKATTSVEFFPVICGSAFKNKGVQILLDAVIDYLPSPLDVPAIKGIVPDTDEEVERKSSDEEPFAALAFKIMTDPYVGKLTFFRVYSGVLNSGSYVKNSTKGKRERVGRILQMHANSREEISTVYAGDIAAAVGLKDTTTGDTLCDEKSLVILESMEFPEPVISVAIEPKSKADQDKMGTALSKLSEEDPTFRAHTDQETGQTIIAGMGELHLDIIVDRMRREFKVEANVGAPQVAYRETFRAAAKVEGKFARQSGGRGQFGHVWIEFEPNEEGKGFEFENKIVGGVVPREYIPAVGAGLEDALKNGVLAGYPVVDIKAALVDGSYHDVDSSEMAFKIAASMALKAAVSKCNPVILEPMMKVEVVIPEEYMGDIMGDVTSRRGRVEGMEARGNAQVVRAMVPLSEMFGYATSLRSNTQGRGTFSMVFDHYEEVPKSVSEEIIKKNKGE
Just the number in µM, nothing appended.

item.smiles: Nc1nc2c(ncn2[C@@H]2O[C@H](COP(=O)(O)OP(=O)(O)O)[C@@H](OP(=O)(O)OP(=O)(O)O)[C@H]2O)c(=O)[nH]1
Kd, µM: 60

In the following, a different compound is considered.
Prompt: Lab note: need Kd with translation elongation factor G (EF-G) (Bacillus anthracis, UniProt Q81VT3) for entry Nc1nc2c(ncn2[C@@H]2O[C@H](COP(=O)(O)OP(=O)(O)OP(=O)(O)O)[C@@H](OP(=O)(O)OP(=O)(O)O)[C@H]2O)c(=O)[nH]1 , please look it up.
Completion: 296

Where these numbers come from: paper PMC7584652
